Target: Neuronal acetylcholine receptor; alpha3/beta4 (Homo sapiens, UniProt P30926+P32297)
Sequence (P30926 whole entry): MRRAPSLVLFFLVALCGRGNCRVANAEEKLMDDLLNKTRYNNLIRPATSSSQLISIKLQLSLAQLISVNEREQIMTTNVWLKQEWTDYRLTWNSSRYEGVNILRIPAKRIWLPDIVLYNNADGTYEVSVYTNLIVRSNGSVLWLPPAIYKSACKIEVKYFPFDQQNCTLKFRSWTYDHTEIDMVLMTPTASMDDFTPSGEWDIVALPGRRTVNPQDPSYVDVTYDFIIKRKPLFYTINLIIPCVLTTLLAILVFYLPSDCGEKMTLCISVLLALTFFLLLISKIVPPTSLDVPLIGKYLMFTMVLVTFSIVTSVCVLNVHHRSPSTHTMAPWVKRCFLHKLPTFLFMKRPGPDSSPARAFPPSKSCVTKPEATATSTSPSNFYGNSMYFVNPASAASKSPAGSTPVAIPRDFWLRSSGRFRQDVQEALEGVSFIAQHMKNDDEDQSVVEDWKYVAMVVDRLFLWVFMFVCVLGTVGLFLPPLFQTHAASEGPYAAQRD
Sequence (P32297 whole entry): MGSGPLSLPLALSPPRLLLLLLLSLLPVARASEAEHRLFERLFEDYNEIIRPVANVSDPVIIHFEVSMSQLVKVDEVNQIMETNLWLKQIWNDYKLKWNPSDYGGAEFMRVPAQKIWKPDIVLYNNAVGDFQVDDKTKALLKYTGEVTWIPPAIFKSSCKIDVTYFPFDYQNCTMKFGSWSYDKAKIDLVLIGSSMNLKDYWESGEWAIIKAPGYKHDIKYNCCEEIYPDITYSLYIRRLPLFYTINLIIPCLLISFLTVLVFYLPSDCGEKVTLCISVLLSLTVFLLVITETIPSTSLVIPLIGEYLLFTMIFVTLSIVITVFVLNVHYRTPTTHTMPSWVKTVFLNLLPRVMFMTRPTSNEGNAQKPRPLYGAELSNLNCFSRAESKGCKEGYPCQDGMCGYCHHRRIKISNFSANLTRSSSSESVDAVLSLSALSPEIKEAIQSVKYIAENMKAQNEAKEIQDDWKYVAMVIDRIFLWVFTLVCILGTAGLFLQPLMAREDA
Test: Displacement of [3H]epibatidine from human alpha3beta4 nAChR expressed in IMR32 cell membrane by microbeta scintillation counting method
Quick rule for you: Ki under 0.03 µM gets Condition met, anything else gets Condition not met.

>  <MOLECULE>
Cc1ncccc1OC[C@@H]1CCCN1

>  <TGT>
Neuronal acetylcholine receptor; alpha3/beta4 (Homo sapiens, UniProt P30926+P32297)

>  <CLASS>
Condition not met

$$$$
>  <MOLECULE>
c1cncc(N2CCC3(CCCN3)C2)c1 (stereo unspecified)

>  <TGT>
Neuronal acetylcholine receptor; alpha3/beta4 (Homo sapiens, UniProt P30926+P32297)

>  <CLASS>
Condition not met

$$$$
>  <MOLECULE>
Cl.Clc1ccc(OC[C@@H]2CC[C@H]3C[C@H]3N2)cn1

>  <TGT>
Neuronal acetylcholine receptor; alpha3/beta4 (Homo sapiens, UniProt P30926+P32297)

>  <CLASS>
Condition not met

$$$$
>  <MOLECULE>
Cl.Clc1ncccc1OC[C@@H]1C[C@H]2C[C@H]2N1

>  <TGT>
Neuronal acetylcholine receptor; alpha3/beta4 (Homo sapiens, UniProt P30926+P32297)

>  <CLASS>
Condition not met

$$$$
>  <MOLECULE>
Clc1ccc(OC[C@H]2C[C@H]3C[C@H]3N2)cn1

>  <TGT>
Neuronal acetylcholine receptor; alpha3/beta4 (Homo sapiens, UniProt P30926+P32297)

>  <CLASS>
Condition not met

$$$$
>  <MOLECULE>
Cl.Clc1cncc(OC[C@@H]2C[C@H]3C[C@H]3N2)c1

>  <TGT>
Neuronal acetylcholine receptor; alpha3/beta4 (Homo sapiens, UniProt P30926+P32297)

>  <CLASS>
Condition not met

$$$$
>  <MOLECULE>
Cl.Clc1ccc(OC[C@@H]2C[C@@H]3C[C@@H]3N2)cn1

>  <TGT>
Neuronal acetylcholine receptor; alpha3/beta4 (Homo sapiens, UniProt P30926+P32297)

>  <CLASS>
Condition not met

$$$$
>  <MOLECULE>
c1cncc(OC[C@H]2NC[C@@H]3C[C@@H]32)c1

>  <TGT>
Neuronal acetylcholine receptor; alpha3/beta4 (Homo sapiens, UniProt P30926+P32297)

>  <CLASS>
Condition met

$$$$
>  <MOLECULE>
Clc1cncc(OC[C@H]2NC[C@@H]3C[C@@H]32)c1

>  <TGT>
Neuronal acetylcholine receptor; alpha3/beta4 (Homo sapiens, UniProt P30926+P32297)

>  <CLASS>
Condition met

$$$$
>  <MOLECULE>
Cl.c1cncc(OC[C@@H]2C[C@H]3C[C@H]3N2)c1

>  <TGT>
Neuronal acetylcholine receptor; alpha3/beta4 (Homo sapiens, UniProt P30926+P32297)

>  <CLASS>
Condition not met

$$$$
>  <MOLECULE>
Cl.Clc1ccc(OC[C@H]2C[C@@H]3C[C@@H]3N2)cn1

>  <TGT>
Neuronal acetylcholine receptor; alpha3/beta4 (Homo sapiens, UniProt P30926+P32297)

>  <CLASS>
Condition not met

$$$$

The reported measurements were obtained from ChEMBL document CHEMBL4602676.
